Values from patent US9113629B2

System: Key Grass and Sedge Weeds as well as Grass Crops
Assay: Post-emergent Test II herbicidal activity (Table 6)
Type: in vivo
Details: post-emergence, 336 h, ECHCG: barnyardgrass (Echinochloa crus-galli), application rate 140 g ai/ha, read-out: Visual Growth Reduction (%) 14 Days After Application, ECHCG
reportedProperty: pest or weed control at 140 g/ha

Prompt line: Quick check: pest or weed control at 140 g/ha of C=Cc1c(N)nc(-c2ccc(C#N)cc2F)nc1C(=O)O ?
Response line: 0 to 29%

Prompt line: Entry under review: C=Cc1c(N)nc(-c2ccc(C(F)(F)F)c(F)c2)nc1C(=O)O . Reported pest or weed control at 140 g/ha?
Response line: 75 to 84%

Prompt line: Which pest or weed control at 140 g/ha is listed for COc1c(N)nc(-c2ccc(C(F)(F)F)c(F)c2)nc1C(=O)O ?
Response line: 95 to 100%

Prompt line: Name the recorded pest or weed control at 140 g/ha for COC(=O)c1nc(-c2ccc(I)c(F)c2)c(Cl)c(N)c1Cl .
Response line: 75 to 84%

Prompt line: Value lookup for pest or weed control at 140 g/ha; key = C=Cc1c(N)nc(-c2ccc(C#N)cc2F)nc1C(=O)OC
Response line: 0 to 29%

Prompt line: // returns reported pest or weed control at 140 g/ha for input Nc1cc(-c2c(F)cc(Br)c(F)c2F)nc(C(=O)O)c1Cl
Response line: 75 to 84%

Prompt line: Entry C#Cc1ccc(-c2nc(C(=O)OC)c(Cl)c(N)c2C)cc1F has what pest or weed control at 140 g/ha?
Response line: 45 to 59%

Prompt line: // lookup pest or weed control at 140 g/ha for Nc1cc(-c2ccc(Br)cc2F)nc(C(=O)O)c1Cl
Response line: 85 to 94%

Prompt line: May I ask what pest or weed control at 140 g/ha has been recorded for COC(=O)c1nc(-c2ccc(Br)cc2)c(C)c(N)c1Cl ?
Response line: 0 to 29%

====

Assign pest or weed control at 140 g/ha to each entry below.
Test system: Key Broadleaf Weed and Crop Species
Assay: Post-emergent Test II herbicidal activity (Table 5)
Format: in vivo
Conditions: post-emergence, 336 h; BRSNN: oilseed-rape, canola (Brassica napus); 140 g ai/ha; post-emergent; 14 days after application; read-out: Visual Growth Reduction (%) 14 Days After Application BRSNN

Prompt line: Param readout = pest or weed control at 140 g/ha; param system = Key Broadleaf Weed and Crop Species; param query = COc1c(N)nc(-c2ccc(OC(F)(F)F)cc2)nc1C(=O)O [Compound 102] ; response: value
Response line: 0 to 29%

Prompt line: Recorded pest or weed control at 140 g/ha for C=Cc1c(N)nc(-c2ccc(C(F)(F)F)c(F)c2)nc1C(=O)OC [Compound 137] with Key Broadleaf Weed and Crop Species, please?
Response line: 0 to 29%

Prompt line: What measured pest or weed control at 140 g/ha is associated with C=Cc1c(C(=O)OC)nc(-c2ccc(C#N)cc2)c(F)c1N [Compound 107] on Key Broadleaf Weed and Crop Species?
Response line: 0 to 29%

Prompt line: Return pest or weed control at 140 g/ha measured with Key Broadleaf Weed and Crop Species given this molecule: COC(=O)c1nc(-c2ccc(OC(F)F)cc2)c(C)c(N)c1Cl [Compound 111]
Response line: 0 to 29%

Prompt line: Recall the recorded pest or weed control at 140 g/ha for COc1c(N)nc(-c2ccc(C#N)cc2)nc1C(=O)O [Compound 25] with Key Broadleaf Weed and Crop Species and state it.
Response line: 0 to 29%

Prompt line: Lab note: need pest or weed control at 140 g/ha for C=Cc1c(N)nc(-c2ccc(I)cc2)nc1C(=O)O [Compound 123] on Key Broadleaf Weed and Crop Species, anyone have it?
Response line: 60 to 74%

Prompt line: Look up pest or weed control at 140 g/ha with Key Broadleaf Weed and Crop Species for this molecule: COc1c(N)nc(-c2ccc(C(F)(F)F)c(F)c2)nc1C(=O)O [Compound 63]
Response line: 85 to 94%

Prompt line: Write down the reported pest or weed control at 140 g/ha of COC(=O)c1nc(-c2ccc(C#N)c(F)c2)c(C)c(N)c1Cl [Compound 155] , test system: Key Broadleaf Weed and Crop Species.
Response line: 60 to 74%

Prompt line: Fill in the recorded pest or weed control at 140 g/ha for this molecule, with Key Broadleaf Weed and Crop Species as test system: C#Cc1ccc(-c2nc(C(=O)O)c(Cl)c(N)c2Cl)cc1 [Compound 153]
Response line: 95 to 100%
